# TARGET_SYSTEM: human GPIIb/IIIa receptor (Homo sapiens (Human), UniProt P05106+P08514)
# Sequence (P08514 32-887): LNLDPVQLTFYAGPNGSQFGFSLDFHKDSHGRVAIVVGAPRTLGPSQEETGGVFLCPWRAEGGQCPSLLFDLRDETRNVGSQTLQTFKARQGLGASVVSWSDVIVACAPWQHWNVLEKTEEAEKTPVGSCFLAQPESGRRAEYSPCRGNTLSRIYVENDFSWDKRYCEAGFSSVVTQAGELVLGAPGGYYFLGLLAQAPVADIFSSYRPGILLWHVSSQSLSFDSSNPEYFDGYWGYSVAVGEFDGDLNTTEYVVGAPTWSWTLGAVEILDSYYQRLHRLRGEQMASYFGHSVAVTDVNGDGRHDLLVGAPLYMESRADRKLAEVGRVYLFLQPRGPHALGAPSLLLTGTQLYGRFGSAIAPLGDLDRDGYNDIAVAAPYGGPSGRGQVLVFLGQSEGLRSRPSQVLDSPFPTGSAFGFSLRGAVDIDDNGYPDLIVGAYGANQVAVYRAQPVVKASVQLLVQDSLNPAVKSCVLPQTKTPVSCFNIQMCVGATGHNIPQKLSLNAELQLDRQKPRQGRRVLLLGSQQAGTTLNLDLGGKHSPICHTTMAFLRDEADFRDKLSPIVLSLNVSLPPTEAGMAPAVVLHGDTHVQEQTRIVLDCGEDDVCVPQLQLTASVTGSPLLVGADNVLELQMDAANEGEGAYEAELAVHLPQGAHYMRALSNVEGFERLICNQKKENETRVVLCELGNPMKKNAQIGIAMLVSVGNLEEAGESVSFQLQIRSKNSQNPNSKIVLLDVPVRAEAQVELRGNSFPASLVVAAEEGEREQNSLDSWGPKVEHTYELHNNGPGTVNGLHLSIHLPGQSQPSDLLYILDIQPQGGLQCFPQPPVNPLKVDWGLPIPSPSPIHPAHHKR
# Sequence (P08514 891-1039 partner): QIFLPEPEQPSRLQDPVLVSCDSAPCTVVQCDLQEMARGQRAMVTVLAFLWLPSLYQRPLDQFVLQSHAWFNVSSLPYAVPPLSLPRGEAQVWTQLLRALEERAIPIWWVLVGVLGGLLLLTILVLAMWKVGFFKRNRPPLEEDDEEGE
# Sequence (P05106 27-788): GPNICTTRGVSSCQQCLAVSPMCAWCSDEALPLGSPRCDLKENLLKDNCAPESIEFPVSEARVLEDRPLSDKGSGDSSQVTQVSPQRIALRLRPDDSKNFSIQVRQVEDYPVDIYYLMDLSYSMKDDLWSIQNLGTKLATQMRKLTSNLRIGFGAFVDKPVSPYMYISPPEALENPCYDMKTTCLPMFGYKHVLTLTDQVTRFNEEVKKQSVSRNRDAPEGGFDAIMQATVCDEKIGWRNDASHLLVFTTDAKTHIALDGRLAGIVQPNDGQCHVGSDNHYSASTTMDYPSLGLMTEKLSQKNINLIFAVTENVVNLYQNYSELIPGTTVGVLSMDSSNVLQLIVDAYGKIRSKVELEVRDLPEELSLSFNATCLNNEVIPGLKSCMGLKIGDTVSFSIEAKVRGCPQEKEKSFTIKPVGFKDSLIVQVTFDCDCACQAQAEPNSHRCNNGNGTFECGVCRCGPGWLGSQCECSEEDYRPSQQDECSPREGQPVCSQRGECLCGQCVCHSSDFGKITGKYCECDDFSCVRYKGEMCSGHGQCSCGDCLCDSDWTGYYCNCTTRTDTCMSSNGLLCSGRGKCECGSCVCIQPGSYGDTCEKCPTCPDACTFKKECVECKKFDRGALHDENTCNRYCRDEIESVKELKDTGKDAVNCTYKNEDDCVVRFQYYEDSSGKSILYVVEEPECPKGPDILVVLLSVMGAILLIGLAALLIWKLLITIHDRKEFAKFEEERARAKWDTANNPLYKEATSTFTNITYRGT
# ASSAY_REMARKS: Affinity assay: displacement of tritiated reference compound from immobilized purified GPIIb/IIIa
# Assay type: binding
# COND: 19F compounds vs 60 nM 3H-labeled reference compound, 1 hour at room temperature; read-out: IC50 human
# Description: Affinity assay: In the first step human GPIIb/IIIa purified from human platelets was immobilized on a 96-well solid plate. After 48 hours the plates were washed and the unspecific binding sites were blocked with Roti®-Block. 2. […] The fraction of tritiated compound (^3H), which is not displaced by inhibitor, was measured in a microplate scintillation counter. […] The maximum value of tritiated reference compound was determined without addition of inhibitor (n=8). […]
pIC50: −log10 of the molar value.
QUANTITY_KIND: pIC50

- N#Cc1ccc([C@H](CC(=O)O)NC(=O)[C@@H]2CCCN(C(=O)CCC3CCNCC3)C2)cc1F: 7.82
- N#Cc1cc(COc2cncc([C@@H](CC(=O)O)NC(=O)[C@H]3CCCN(C(=O)CCC4CCNCC4)C3)c2)ccc1F (stereo in doubt): 8.10
- O=C(O)C[C@H](NC(=O)[C@@H]1CCCN(C(=O)CCC2CCNCC2)C1)c1ccc(OCCF)cc1: 7.54
- O=C(O)C[C@H](NC(=O)[C@@H]1CCCN(C(=O)CCC2CCNCC2)C1)c1cccc(OCCOCCOCCF)c1: 7.08
- O=C(O)C[C@H](NC(=O)[C@@H]1CCCN(C(=O)CCC2CCNCC2)C1)c1cncc(-c2cccc(OCCF)c2)c1: 7.80
- O=C(O)C[C@H](NC(=O)[C@@H]1CCCN(C(=O)CCC2CCNCC2)C1)c1cncc(OCCF)c1: 7.70
- O=C(O)C[C@H](NC(=O)[C@@H]1CCCN(C(=O)CCC2CCNCC2)C1)c1cncc(-c2ccc(OCCF)cc2)c1: 7.96
- N#Cc1ccc(COc2cncc([C@H](CC(=O)O)NC(=O)[C@@H]3CCCN(C(=O)CCC4CCNCC4)C3)c2)cc1F: 8.15
- O=C(O)C[C@H](NC(=O)[C@@H]1CCCN(C(=O)CCC2CCNCC2)C1)c1cncc(-c2ccc(F)c([N+](=O)[O-])c2)c1: 7.85
- O=C(O)C[C@H](NC(=O)[C@@H]1CCCN(C(=O)CCC2CCNCC2)C1)c1cc(F)cc(-c2ccc(OCCF)cc2)c1: 7.46
- O=C(O)C[C@H](NC(=O)[C@@H]1CCCN(C(=O)CCC2CCNCC2)C1)c1cncc(OCCOCCOCCF)c1: 7.80
- O=C(O)C[C@H](NC(=O)[C@@H]1CCCN(C(=O)CCC2CCNCC2)C1)c1cncc(C#Cc2ccc(OCCF)cc2)c1: 8.30
- O=C(O)C[C@H](NC(=O)[C@@H]1CCCN(C(=O)CCC2CCNCC2)C1)c1cccc(OCCF)c1: 7.00
